Source of measurements: patent US7754689B2

Target: T1, BMP-12 (UniProt Q7Z4P5 322-450, limits assumed)
T1 construct: also called BMP12/GDF7
T1 sequence (looked up): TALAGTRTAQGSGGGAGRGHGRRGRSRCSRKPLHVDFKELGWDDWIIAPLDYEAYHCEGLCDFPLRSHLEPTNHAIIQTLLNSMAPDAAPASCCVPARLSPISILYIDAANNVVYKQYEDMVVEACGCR
Test: peptide resin, filter plate; load 4: 25 mM MES pH 6.0
Method: The coupled resins, plus an unconjugated resin for use as a control, were suspended in 16% ethanol, 150 mM NaCl, and 20 mM Tris buffer at pH 7.5 at a 25% v/v ratio (e.g., 25% ethanol, 75% Tris buffer). […] The protein concentration in the filtrate, or flow-through, was calculated as $(A280-A320)/1.3$. […] The protein concentration was measured in the new filtrate as described above. […]
No end group written: not given here.
# label = 1 if 100 mM HAc elution conc < 0.3 mg/mL else -1

Below, 4 binders whose answers are already recorded.
binder="Ac-VAPPGYHAFYSHGEK [BMP2 N-trunc_2 peptide 745]" class_label=1
binder="Ac-SDVGWNDWIVAPPGYHAFYCHGEK [BMP2 N-trun peptide 750]" class_label=-1
binder="Ac-ELGWDDWIIAPLDYEAYHSEGLK [BMP12 N-trun_1S peptide 749]" class_label=-1
binder="Ac-SDVGWNDWIVAPPGYHAFYSHGEK [BMP2 N-trun 1S peptide 751]" class_label=-1

Qu. Is 100 mM HAc elution conc strictly under 0.3 mg/mL for the entry Ac-LYVSDVGWNDWIVK (not fully specified (residue 3); printed as Ac-LYV**SDVGWNDWIVK; also: ** after V3 not explained) [BMP2 C-trunc_2 peptide 746] ?
Ans. -1

Qu. Is 100 mM HAc elution conc strictly under 0.3 mg/mL for the entry Ac-LYVDFSDVGWNDWIVAPPGYHAFYSHGEK [BMP2 Full peptide 747] ?
Ans. -1
